- Protocol Details: In vivo pharmacokinetic profile in rat after IV injection (ELISA)
- Condition Set: male, Sprague Dawley, in vivo; rat, IV 0.02 mg/kg, sampling time 6 min; read-out: Plasma SST concentration, Mean
Measurement Kind: level at 0.1 h (ng/mL)
Answer with a number only, understood to be in ng/mL.

Provide level at 0.1 h value for the following compound: C[C@H](N)C(=O)NCC(=O)N[C@H]1CSSC[C@@H](C(=O)O)NC(=O)[C@H](CO)NC(=O)[C@H]([C@@H](C)O)NC(=O)[C@H](Cc2ccccc2)NC(=O)[C@H]([C@@H](C)O)NC(=O)[C@H](CCCCN)NC(=O)[C@H](Cc2c[nH]c3ccccc23)NC(=O)[C@H](Cc2ccccc2)NC(=O)[C@H](Cc2ccccc2)NC(=O)[C@H](CC(N)=O)NC(=O)[C@H](CCCCN)NC1=O [Free SST]
1.07

====

- Protocol Details: In vivo pharmacokinetic profile in rat after IV injection (ELISA)
- Condition Set: male, Sprague Dawley, in vivo; rat, IV 0.02 mg/kg, sampling time 1 min; read-out: Plasma SST concentration, Mean
Measurement Kind: level at 1 min (ng/mL)
# unit: ng/mL | format: bare number

Entry C[C@H](N)C(=O)NCC(=O)N[C@H]1CSSC[C@@H](C(=O)O)NC(=O)[C@H](CO)NC(=O)[C@H]([C@@H](C)O)NC(=O)[C@H](Cc2ccccc2)NC(=O)[C@H]([C@@H](C)O)NC(=O)[C@H](CCCCN)NC(=O)[C@H](Cc2c[nH]c3ccccc23)NC(=O)[C@H](Cc2ccccc2)NC(=O)[C@H](Cc2ccccc2)NC(=O)[C@H](CC(N)=O)NC(=O)[C@H](CCCCN)NC1=O [Free SST] needs its level at 1 min filled in; supply it.
7.13
